Test system: HeLa Kyoto;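 further: HeLa Kyoto cells synchronized by double thymidine or nocodazole block, proteins quantified by TMT10plex mass spectrometry, three independent biological replicates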
protocol: melting temperature (median over replicates), in situ; higher = more thermally stable
condition: cell cycle stage: mitosis
recorded metric: melting temperature (°C)
Provide the reading as a plain figure in °C.

Sample answers from the record:
item sequence	units symbol	value reported
MSFLQDPSFFTMGMWSIGAGALGAAALALLLANTDVFLSKPQKAALEYLEDIDLKTLEKEPRTFKAKELWEKNGAVIMAVRRPGCFLCREEAADLSSLKSMLDQLGVPLYAVVKEHIRTEVKDFQPYFKGEIFLDEKKKFYGPQRRKMMFMGFIRLGVWYNFFRAWNGGFSGNLEGEGFILGGVFVVGSGKQGILLEHREKEFGDKVNLLSVLEAAKMIKPQTLASEKK [FAM213A]	°C	55.5
MSGPRPVVLSGPSGAGKSTLLKRLLQEHSGIFGFSVSHTTRNPRPGEENGKDYYFVTREVMQRDIAAGDFIEHAEFSGNLYGTSKVAVQAVQAMNRICVLDVDLQGVRNIKATDLRPIYISVQPPSLHVLEQRLRQRNTETEESLVKRLAAAQADMESSKEPGLFDVVIINDSLDQAYAELKEALSEEIKKAQRTGA [GUK1]	°C	50.2
MGRRSSDTEEESRSKRKKKHRRRSSSSSSSDSRTYSRKKGGRKSRSKSRSWSRDLQPRSHSYDRRRRHRSSSSSSYGSRRKRSRSRSRGRGKSYRVQRSRSKSRTRRSRSRPRLRSHSRSSERSSHRRTRSRSRDRERRKGRDKEKREKEKDKGKDKELHNIKRGESGNIKAGLEHLPPAEQAKARLQLVLEAAAKADEALKAKERNEEEAKRRKEEDQATLVEQVKRVKEIEAIESDSFVQQTFRSSKEVKKSVEPSEVKQATSTSGPASAVADPPSTEKEIDPTSIPTAIKYQDDNSLAHPNLFIEKADAEEKWFKRLIALRQERLMGSPVA [RSRC1]	°C	50.4

response.value for MFRAAAPGQLRRAASLLRFQSTLVIAEHANDSLAPITLNTITAATRLGGEVSCLVAGTKCDKVAQDLCKVAGIAKVLVAQHDVYKGLLPEELTPLILATQKQFNYTHICAGASAFGKNLLPRVAAKLEVAPISDIIAIKSPDTFVRTIYAGNALCTVKCDEKVKVFSVRGTSFDAAATSGGSASSEKASSTSPVEISEWLDQKLTKSDRPELTGAKVVVSGGRGLKSGENFKLLYDLADQLHAAVGASRAAVDAGFVPNDMQVGQTGKIVAPELYIAVGISGAIQHLAGMKDSKTIVAINKDPEAPIFQVADYGIVADLFKVVPEMTEILKKK [ETFA] (field: melting temperature) = 53.6

Looking up MSQTAMSETYDFLFKFLVIGNAGTGKSCLLHQFIEKKFKDDSNHTIGVEFGSKIINVGGKYVKLQIWDTAGQERFRSVTRSYYRGAAGALLVYDITSRETYNALTNWLTDARMLASQNIVIILCGNKKDLDADREVTFLEASRFAQENELMFLETSALTGENVEEAFVQCARKILNKIESGELDPERMGSGIQYGDAALRQLRSPRRAQAPNAQECGC [RAB4A] , I see its melting temperature listed as 57.6

The recorded melting temperature for MCGDCVEKEYPNRGNTCLENGSFLLNFTGCAVCSKRDFMLITNKSLKEEDGEEIVTYDHLCKNCHHVIARHEYTFSIMDEFQEYTMLCLLCGKAEDTISILPDDPRQMTLLF [CHURC1] is 52.5
